inhibition: recorded values
Target Or Test System: Hypoxia inducible factors; HIF-1-alpha, HIF-2-alpha (Homo sapiens, UniProt Q16665+Q99814)
Experimental Protocol: Inhibition of hypoxia-induced HIF1 activation in human T47D cells at 30 uM by cell based reporter gene assay

Completed entries (count: 3):
[
  {
    "Structure Smiles": "C/C1=C/C(=O)O[C@@H]2C[C@@H](CC[C@H](C)/C=C\\C=C\\CC1)O[C@@](OC(=O)NCCBr)([C@@H]1CSC(=O)N1)C2",
    "Value Observed": "< 50%"
  },
  {
    "Structure Smiles": "C/C1=C/C(=O)O[C@@H]2C[C@@H](CC[C@H](C)/C=C\\C=C\\CC1)O[C@@](OC(=O)NCCCCl)([C@@H]1CSC(=O)N1)C2",
    "Value Observed": "< 50%"
  },
  {
    "Structure Smiles": "C/C1=C/C(=O)O[C@@H]2C[C@@H](CC[C@H](C)/C=C\\C=C\\CC1)O[C@@](OC(=O)Nc1ccccc1)([C@@H]1CSC(=O)N1)C2",
    "Value Observed": "< 50%"
  }
]

# input Quick one: inhibition of `C/C1=C/C(=O)O[C@@H]2C[C@@H](CC[C@H](C)/C=C\C=C\CC1)O[C@@](OC(=O)NCCCl)([C@@H]1CSC(=O)N1)C2` ?
# output < 50%

Source of measurements: ChEMBL document CHEMBL1144849
